TARGET OR SYSTEM: α-glucosidase (Saccharomyces cerevisiae, UniProt P53341)
Construct: purchased Sigma-Aldrich Inc
Sequence (P53341 whole entry): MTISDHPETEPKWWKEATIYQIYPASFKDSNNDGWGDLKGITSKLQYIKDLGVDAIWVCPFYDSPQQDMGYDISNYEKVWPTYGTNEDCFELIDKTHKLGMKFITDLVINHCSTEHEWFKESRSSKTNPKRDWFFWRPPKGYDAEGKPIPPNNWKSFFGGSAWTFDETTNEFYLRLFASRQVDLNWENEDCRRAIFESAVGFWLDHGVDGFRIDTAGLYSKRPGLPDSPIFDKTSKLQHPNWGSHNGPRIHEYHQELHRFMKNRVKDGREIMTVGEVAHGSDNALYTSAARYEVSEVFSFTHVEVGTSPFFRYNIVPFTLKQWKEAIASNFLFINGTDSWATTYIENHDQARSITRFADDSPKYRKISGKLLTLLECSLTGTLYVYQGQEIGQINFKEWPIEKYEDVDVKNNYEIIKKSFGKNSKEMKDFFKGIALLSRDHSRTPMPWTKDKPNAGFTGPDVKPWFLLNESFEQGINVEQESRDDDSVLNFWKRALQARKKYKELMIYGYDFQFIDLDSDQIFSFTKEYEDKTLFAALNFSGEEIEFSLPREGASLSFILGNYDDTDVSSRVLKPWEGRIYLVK
EXPERIMENT SUMMARY: α-Glucosidase inhibitory assay (pNPG hydrolysis)
Assay type: biochemical
CONDITIONS USED: read-out: α-Glucosidase Inhibition (%)
MEASURED METRIC: inhibition at 100 µM (%)
Answers are plain numbers, in %.

INSERT INTO assay_data (compound, measured_metric, numeric_readout) VALUES
  ('CCCC[C@@H](CCCCCCCCCC(=O)OC)O[C@@H]1O[C@H](C)[C@H](O)[C@H](O)[C@H]1O[C@@H]1O[C@H](CO)[C@@H](O)[C@H](O[C@@H]2O[C@H](CO)[C@@H](O)[C@H](O)[C@H]2O)[C@H]1O[C@@H]1O[C@@H](C)[C@H](OC(=O)[C@H](C)[C@@H](C)OC(=O)[C@H](C)[C@@H](C)O)[C@@H](O)[C@H]1O [Compound 5, Cusponin V]', 'inhibition at 100 µM', 51.8);

With those in mind, consider the next compound.
Sample CCCCC[C@@H](CCCCCCCCCC(=O)OC)O[C@@H]1O[C@H](CO)[C@@H](O)[C@H](O)[C@H]1O[C@@H]1O[C@@H](C)[C@H](O[C@@H]2O[C@@H](C)[C@H](O[C@@H]3O[C@@H](C)[C@H](O)[C@@H](O)[C@H]3O)[C@@H](O[C@@H]3O[C@H](CO)[C@@H](O)[C@H](O)[C@H]3O)[C@H]2O)[C@@H](O)[C@H]1O [Compound 8, operculinic acid B methyl ester] — what was its inhibition at 100 µM?
64.6

###

TARGET OR SYSTEM: PTP1B (Homo sapiens)
Construct: purchased MedChemExpress LLC
Sequence (P18031 1-435): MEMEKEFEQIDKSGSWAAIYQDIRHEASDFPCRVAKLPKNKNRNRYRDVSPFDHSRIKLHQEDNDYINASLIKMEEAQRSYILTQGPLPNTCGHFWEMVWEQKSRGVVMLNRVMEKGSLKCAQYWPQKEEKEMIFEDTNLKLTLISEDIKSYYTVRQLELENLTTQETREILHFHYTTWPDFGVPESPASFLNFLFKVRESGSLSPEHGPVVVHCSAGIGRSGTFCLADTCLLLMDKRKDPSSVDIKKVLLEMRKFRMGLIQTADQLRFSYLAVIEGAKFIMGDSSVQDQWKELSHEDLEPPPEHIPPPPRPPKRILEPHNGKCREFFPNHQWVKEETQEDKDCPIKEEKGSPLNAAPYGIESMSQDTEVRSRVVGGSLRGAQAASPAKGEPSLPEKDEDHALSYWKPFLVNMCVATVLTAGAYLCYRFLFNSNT
EXPERIMENT SUMMARY: PTP1B inhibitory assay (pNPP hydrolysis)
Format: biochemical
CONDITIONS USED: percent inhibition at a concentration of 100 μM
Please go through the items and note down their inhibition at 100 µM.
Give bare numbers, in %.

Please review the entries below; each comes with its answer.
INSERT INTO results (smiles_string, measured_metric, unit_of_measure, numeric_readout) VALUES
  ('CCCCC[C@@H](CCCCCCCCCC(=O)OC)O[C@@H]1O[C@H](CO)[C@@H](O)[C@H](O)[C@H]1O[C@@H]1O[C@@H](C)[C@H](O[C@@H]2O[C@@H](C)[C@H](O[C@@H]3O[C@@H](C)[C@H](O)[C@@H](O[C@@H]4O[C@H](CO)[C@@H](O)[C@H](O)[C@H]4O)[C@H]3O)[C@@H](O)[C@H]2O)[C@@H](O)[C@H]1O', 'inhibition at 100 µM', '%', 3.26),
  ('CCCC[C@@H](CCCCCCCCCC(=O)OC)O[C@@H]1O[C@H](C)[C@H](O)[C@H](O)[C@H]1O[C@@H]1O[C@H](CO)[C@@H](O)[C@H](O[C@@H]2O[C@H](CO)[C@@H](O)[C@H](O)[C@H]2O)[C@H]1O[C@@H]1O[C@@H](C)[C@H](OC(=O)[C@H](C)[C@@H](C)O)[C@@H](O)[C@H]1O', 'inhibition at 100 µM', '%', 29.9);

Provide value of inhibition at 100 µM for this record tested with PTP1B (Homo sapiens): CCCC[C@@H](CCCCCCCCCC(=O)OC)O[C@@H]1O[C@H](CO)[C@@H](O)[C@H](O)[C@H]1O[C@@H]1O[C@@H](C)[C@H](O[C@@H]2O[C@@H](C)[C@H](O[C@@H]3O[C@@H](C)[C@H](O)[C@@H](O)[C@H]3O)[C@@H](O[C@@H]3O[C@H](CO)[C@@H](O)[C@H](O)[C@H]3O)[C@H]2O)[C@@H](O)[C@H]1O
89.2
